pIC50 values recorded for human lung cancer strain NCI-H441
Lab note: report pIC50 as minus log10 of the concentration in molar units, number only.

Item CCO[C@@H]1C[C@H]2C(=O)NC3(CCC3)C(=O)N(C)[C@@H](C3CCCC3)C(=O)N(C)[C@H](C(=O)N(C)C)CC(=O)N(C)[C@@H](CC3CC3)C(=O)N[C@@H]([C@@H](C)CC)C(=O)N(C)CC(=O)N(C)[C@H]3C/C=C\CCN(C3=O)[C@@H](Cc3ccc(F)cc3)C(=O)N(C)CC(=O)N[C@@H](CCc3ccc(Cl)c(Cl)c3)C(=O)N2C1 [PP1478] was tested on human lung cancer strain NCI-H441; the reported pIC50 is 6.99

Continuing:
Item CCO[C@@H]1C[C@H]2C(=O)NC3(CC(C)(C)C3)C(=O)N(C)[C@@H](C3CCCC3)C(=O)N(C)[C@H](C(=O)N(C)CC)CC(=O)N(C)[C@H]3CCCC/C=C/c4ccc(cc4)C[C@@H](C(=O)N(C)CC(=O)N[C@@H](CCc4cc(F)c(C(F)(F)F)c(F)c4)C(=O)N2C1)N1CC/C=C\C[C@@H](C1=O)N(C)C(=O)CN(C)C(=O)[C@H]([C@@H](C)CC)NC3=O [PP1829] was tested on human lung cancer strain NCI-H441; the reported pIC50 is 8.64
